- TARGET_DESC: LRRK2(G2019S mutation, GST-LRRK2(amino acids 970-2527)) (Homo sapiens (Human), UniProt Q5S007, G2019S)
- Sequence (Q5S007 970-2527 G2019S): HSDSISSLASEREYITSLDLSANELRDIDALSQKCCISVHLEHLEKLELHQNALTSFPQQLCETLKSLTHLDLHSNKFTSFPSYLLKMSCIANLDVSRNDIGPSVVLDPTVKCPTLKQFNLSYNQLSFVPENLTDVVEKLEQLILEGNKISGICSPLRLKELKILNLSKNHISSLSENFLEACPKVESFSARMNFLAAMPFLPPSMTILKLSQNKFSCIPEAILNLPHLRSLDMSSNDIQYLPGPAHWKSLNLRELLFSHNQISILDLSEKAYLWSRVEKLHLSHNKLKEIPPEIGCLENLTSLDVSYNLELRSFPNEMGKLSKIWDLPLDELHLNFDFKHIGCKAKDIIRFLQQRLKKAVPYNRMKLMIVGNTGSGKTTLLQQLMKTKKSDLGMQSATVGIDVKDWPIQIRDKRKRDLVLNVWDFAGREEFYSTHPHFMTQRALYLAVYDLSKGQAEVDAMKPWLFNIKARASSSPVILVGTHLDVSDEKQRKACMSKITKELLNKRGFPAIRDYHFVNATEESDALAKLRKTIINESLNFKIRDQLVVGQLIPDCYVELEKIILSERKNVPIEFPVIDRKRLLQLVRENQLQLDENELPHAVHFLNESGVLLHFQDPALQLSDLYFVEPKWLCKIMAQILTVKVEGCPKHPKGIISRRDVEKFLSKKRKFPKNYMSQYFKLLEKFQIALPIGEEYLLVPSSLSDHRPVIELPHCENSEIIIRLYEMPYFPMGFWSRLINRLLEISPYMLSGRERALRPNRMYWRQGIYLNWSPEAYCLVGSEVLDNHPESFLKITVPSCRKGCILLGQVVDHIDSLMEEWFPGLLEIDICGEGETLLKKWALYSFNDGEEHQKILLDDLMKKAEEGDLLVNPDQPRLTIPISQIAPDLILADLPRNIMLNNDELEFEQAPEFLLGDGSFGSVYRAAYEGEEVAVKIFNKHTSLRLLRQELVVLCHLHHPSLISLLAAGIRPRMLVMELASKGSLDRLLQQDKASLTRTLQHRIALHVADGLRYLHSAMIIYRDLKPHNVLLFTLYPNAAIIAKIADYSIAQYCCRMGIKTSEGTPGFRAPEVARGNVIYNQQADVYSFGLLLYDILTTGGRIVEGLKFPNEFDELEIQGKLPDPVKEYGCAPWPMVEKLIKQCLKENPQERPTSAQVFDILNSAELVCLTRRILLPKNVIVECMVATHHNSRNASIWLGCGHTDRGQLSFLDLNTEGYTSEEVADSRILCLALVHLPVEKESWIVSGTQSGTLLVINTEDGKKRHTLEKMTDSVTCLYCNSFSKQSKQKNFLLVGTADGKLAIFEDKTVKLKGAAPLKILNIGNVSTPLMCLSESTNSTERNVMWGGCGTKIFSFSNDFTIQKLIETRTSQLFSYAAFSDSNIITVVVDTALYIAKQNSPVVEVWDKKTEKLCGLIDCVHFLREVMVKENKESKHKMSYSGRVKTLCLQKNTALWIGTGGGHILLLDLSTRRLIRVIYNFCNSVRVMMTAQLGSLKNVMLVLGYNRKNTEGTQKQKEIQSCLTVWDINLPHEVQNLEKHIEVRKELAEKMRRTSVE
- EXPERIMENTAL_PROTOCOL: LRRK2 Km ATP LanthaScreen Assay
- Format: biochemical
- RUN_CONDITIONS: Km ATP (184 μM ATP solution), G2019S LRRK2, mean IC50
pIC50: −log10 of the molar value.
We use 8 as the dividing line for pIC50: on or above the line is class 1, below is class 0.

Assess whether reported pIC50 for C[C@@H]1CN(c2cc(-c3n[nH]c4ccc(-c5cnn(C)c5)cc34)ncn2)C[C@H](C)O1 sits at 8 or higher.
class 1

Assess whether reported pIC50 for CC(C)Oc1ccc2[nH]nc(-c3cc(N4CCO[C@@H](C)C4)ncn3)c2c1 sits at 8 or higher.
class 0

Further cases:
Assess whether reported pIC50 for COCCN1CCN(c2cc(-c3n[nH]c4cc(F)c(OC(C)C)cc34)ncn2)CC1=O sits at 8 or higher.
class 1
